# ASSAY SUMMARY: Pharmacokinetic study in rat plasma after oral administration of QJYQ (UHPLC-sMRM)
# Type: in vivo, Sprague-Dawley rats
# DETAILS: rat, in vivo, po, 3.15 g/kg
Some molecules, each annotated with its measured AUC(0-t).

[
  {
    "MOLECULE": "O=C(O)[C@H]1O[C@@H](Oc2cc(O)c3c(=O)cc(-c4ccc(O)cc4)oc3c2)[C@H](O)[C@@H](O)[C@@H]1O [apigenin-7-O-glucuronide]",
    "AUC(0-t) / ng·h/mL": 14603.11
  },
  {
    "MOLECULE": "COc1c(O[C@@H]2O[C@H](C(=O)O)[C@@H](O)[C@H](O)[C@H]2O)cc(O)c2c(=O)cc(-c3ccccc3)oc12 [wogonoside]",
    "AUC(0-t) / ng·h/mL": 73080.32
  },
  {
    "MOLECULE": "COC(=O)C1=CO[C@@H](O[C@@H]2O[C@H](CO)[C@@H](O)[C@H](O)[C@H]2O)[C@H]2[C@@H]1C(=O)C[C@@H]2C",
    "AUC(0-t) / ng·h/mL": 618.13
  },
  {
    "MOLECULE": "COc1cc(/C=C/C(=O)O)cc(OC)c1O",
    "AUC(0-t) / ng·h/mL": 86.98
  }
]

* * *

# ASSAY SUMMARY: Stability of analytes in rat plasma (auto-sampler, freeze-thaw, room temperature, long-term)
# DETAILS: 100 ng/mL, autosampler 24 h

[
  {
    "MOLECULE": "O=C(/C=C/c1ccc(O[C@@H]2O[C@H](CO)[C@@H](O)[C@H](O)[C@H]2O)cc1)c1ccc(O)cc1O [isoliquiritin]",
    "VALUE UNITS": "%",
    "Autosampler for 24 h Accuracy (%)": 107.0
  },
  {
    "MOLECULE": "CC(C)(O[C@@H]1O[C@H](CO)[C@@H](O)[C@H](O)[C@H]1O)[C@@H]1CC[C@](O)(CO)[C@H]2CC(=O)[C@@](C)(O)[C@@H]2C1 [atractyloside A]",
    "VALUE UNITS": "%",
    "Autosampler for 24 h Accuracy (%)": 94.4
  },
  {
    "MOLECULE": "COc1ccc([C@@H]2CC(=O)c3c(O)cc(O[C@@H]4O[C@H](CO[C@@H]5O[C@@H](C)[C@H](O)[C@@H](O)[C@H]5O)[C@@H](O)[C@H](O)[C@H]4O)cc3O2)cc1O [hesperidin]",
    "VALUE UNITS": "%",
    "Autosampler for 24 h Accuracy (%)": 96.0
  }
]

* * *

# ASSAY SUMMARY: Stability of analytes in rat plasma (auto-sampler, freeze-thaw, room temperature, long-term)
# DETAILS: 12.5 ng/mL, −80°C 1 month
REPORTED PROPERTY: −80°C for 1month Accuracy (%)

[
  {
    "COMPOUND": "O=C1C[C@@H](c2ccc(O)cc2)Oc2cc(O)cc(O)c21 [naringenin]",
    "ASSAY VALUE": 85.7
  },
  {
    "COMPOUND": "O=c1c(O[C@@H]2O[C@H](CO)[C@H](O)[C@H](O)[C@H]2O)c(-c2ccc(O)c(O)c2)oc2cc(O)cc(O)c12 [hyperoside]",
    "ASSAY VALUE": 100.0
  },
  {
    "COMPOUND": "CC(C)=CCC[C@](C)(O)[C@H]1CC[C@]2(C)[C@@H]1[C@H](O)C[C@@H]1[C@@]3(C)CC[C@H](O)C(C)(C)[C@@H]3[C@@H](O[C@@H]3O[C@H](CO)[C@@H](O)[C@H](O)[C@H]3O[C@@H]3O[C@H](CO)[C@@H](O)[C@H](O)[C@H]3O)C[C@]12C [ginsenoside Rf]",
    "ASSAY VALUE": 97.1
  },
  {
    "COMPOUND": "O=c1cc(-c2ccccc2)oc2cc(O)c(O)c(O)c12 [baicalein]",
    "ASSAY VALUE": 99.7
  },
  {
    "COMPOUND": "O=C(O)c1ccc(O)c(O)c1 [protocatechuic acid]",
    "ASSAY VALUE": 114.0
  },
  {
    "COMPOUND": "COc1c2c(cc3oc(CO)cc(=O)c13)O[C@H](C(C)(C)O)C2 [cimifugin]",
    "ASSAY VALUE": 96.3
  },
  {
    "COMPOUND": "O=C(/C=C/c1ccc(O)c(O)c1)O[C@@H]1C[C@](O)(C(=O)O)C[C@@H](O)[C@H]1O [chlorogenic acid]",
    "ASSAY VALUE": 98.3
  },
  {
    "COMPOUND": "COc1cc(/C=C/C(=O)O)ccc1O [ferulic acid]",
    "ASSAY VALUE": 115.0
  }
]
